These entries and their values trace back to PubChem BioAssay AID504594.

experiment: growth inhibition of PfHsp90-dependent yeast, primary screen, antimalarial PfHsp90 inhibitor project, S. cerevisiae, BacTiter-Glo luminescence (AID 504594);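 also: 0% = DMSO neutral control wells and 100% = 20 µM radicicol control wells; higher value means stronger growth inhibition because the sign is flipped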; conditions: S. cerevisiae expressing PfHsp90, BacTiter-Glo growth, 48 h; at 9.4 µM; hits give high values
Among all 2,000 compounds or so, fewer than 10 were called active. These entries were drawn from the full list.
Think of -10% as a floor: if growth inhibition stands on it or above, it is rule met; beneath it, rule not met.

compound=CC(C)c1ccc(/C=C/C(=O)O)cc1 class_assignment="rule not met"
compound="COc1ccc(CNC(=O)C2CCCN2C)cc1OC (stereo unspecified)" class_assignment="rule not met"
compound=COC1CCN(Cc2cn(Cc3ccccc3)nc2-c2cc3ccccc3o2)CC1 class_assignment="rule met"

API: above_or_equal(metric=growth inhibition, cutoff=-10%) for item Oc1c(Cl)cc(Cl)c(Cl)c1Cc1c(O)c(Cl)cc(Cl)c1Cl
rule met

API: above_or_equal(metric=growth inhibition, cutoff=-10%) for item CC(C)N(C(=O)Cc1ccccc1[N+](=O)[O-])C(C)C
rule met

API: above_or_equal(metric=growth inhibition, cutoff=-10%) for item O=C1OC(=O)C2C1[C@@H]1CC[C@H]2O1 (stereo partly specified)
rule not met

* * *

assay: growth inhibition of PfHsp90-dependent yeast, primary screen, antimalarial PfHsp90 inhibitor project, S. cerevisiae, BacTiter-Glo luminescence (AID 504594);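 also: 0% = DMSO neutral control wells and 100% = 20 µM radicicol control wells; higher value means stronger growth inhibition because the sign is flipped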; conditions: S. cerevisiae expressing PfHsp90, BacTiter-Glo growth, 48 h; at 9.4 µM; hits give high values
Fewer than 10 of roughly 2,000 compounds were called active. Only a sample is shown.
Below is a list of entries, each paired with its recorded growth inhibition value.
Report only the number, with the unit % understood.

# count of solved cases: 5
compound="CCc1cc2c(=O)c(-c3ccc4c(c3)OCCO4)coc2c(CN2CCCCC2C)c1O (stereo unspecified)" measured_value=-11.5
compound=COc1ccc(-n2cc(CNCc3cccnc3)c(-c3cccc(F)c3)n2)cc1 measured_value=-18.3
compound="COc1ccc(C(=O)[C@H]2[C@H]3C(=O)N(c4ccccc4)C(=O)[C@H]3C3C=CC=NN32)cc1 (stereo partly specified)" measured_value=15.9
compound=O=C(Cc1cccc2ccccc12)N1CC[C@@]2(O)CCCC[C@H]2C1 measured_value=-9.85
compound=CC(=O)N1CCN(c2ccc(OC[C@H]3CO[C@](Cn4ccnc4)(c4ccc(Cl)cc4Cl)O3)cc2)CC1 measured_value=94.4

Look up growth inhibition: COc1ccc2[nH]c3c(c2c1)CCn1c-3nc2ccccc2c1=O
0.118

Look up growth inhibition: Cc1ccc2nc3c(cc(C(=O)NCC4CCCO4)c(=N)n3CCCOC(C)C)c(=O)n2c1 (stereo unspecified)
4.47

Look up growth inhibition: COc1ccc(/C=C2\CC/C(=C\c3ccc(OC)c(OC)c3)C2=O)cc1OC
-15.8

* * *

test: growth inhibition of PfHsp90-dependent yeast, primary screen, antimalarial PfHsp90 inhibitor project, S. cerevisiae, BacTiter-Glo luminescence (AID 504594);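 also: 0% = DMSO neutral control wells and 100% = 20 µM radicicol control wells; higher value means stronger growth inhibition because the sign is flipped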; settings: S. cerevisiae expressing PfHsp90, BacTiter-Glo growth, 48 h; at 9.4 µM; hits give high values
Hit rate of the full screen: of about 2,000 compounds, fewer than 10 were called active. Only a sample is shown.
ENDPOINT NAME: growth inhibition

compound=O=C(NCCc1nc2ccccc2[nH]1)c1cccc(Br)c1 endpoint_name="growth inhibition" measured_value="2.71% (inactive)"
compound=Cc1ccc2c(CN3CCN(Cc4ccc5c(c4)OCO5)CC3)cc(=O)oc2c1C endpoint_name="growth inhibition" measured_value="0.516% (inactive)"
compound=COc1cc(NC(=O)N[C@@H](Cc2ccccc2)C(=O)O)cc(OC)c1 endpoint_name="growth inhibition" measured_value="5.35% (inactive)"

Look up growth inhibition: O=C(O)c1ccccc1C(=O)OCCCCOC(=O)c1ccccc1C(=O)O
-3.9% (inactive)

Look up growth inhibition: CC(=O)Nc1ccc(OS(=O)(=O)c2c(C)cc(C)cc2C)cc1
10.9% (inactive)

Look up growth inhibition: O=C(CN1CCN(Cc2ccccc2)CC1)N1CCCc2c1c(=O)oc1ccc(O)cc21
-7.45% (inactive)

Look up growth inhibition: OCCC1CN(Cc2ccccc2-c2ccco2)CCN1C1CCCC1 (stereo unspecified)
-5.78% (inactive)

Look up growth inhibition: COc1ccc(CNC(=O)N[C@H](C(=O)O)C(C)C)cc1OC
-0.856% (inactive)

Look up growth inhibition: COc1ccccc1C(=O)N=C1NC(=O)CC2C(=O)NCCN12 (stereo unspecified)
2.95% (inactive)

Look up growth inhibition: C=CCc1cccc2cc(C(=O)Nc3ccc(CC(=O)O)cc3)c(=O)oc12
-7.68% (inactive)

Look up growth inhibition: CC(=O)N1CCN(c2ccc(NC(=O)/C=C/c3ccccc3)cc2)CC1
10.6% (inactive)
